Below, each entry is listed alongside its reported inhibition at 10 µM.
System: MCF7
ASSAY INFO: Antiproliferative activity against human MCF7 cells assessed as inhibition of cell growth rate at 10 uM measured after 48 hrs by MTT assay
Type: functional

- SMILES INPUT: "COc1cc2ccc(=O)oc2cc1OCCCCCCOc1no[n+]([O-])c1S(=O)(=O)c1ccccc1"
  inhibition at 10 µM (%): 84.8
- SMILES INPUT: "COc1cc2cc(NC(C)=O)c(=O)oc2cc1OCCCOc1no[n+]([O-])c1S(=O)(=O)c1ccccc1"
  inhibition at 10 µM (%): 88.5
- SMILES INPUT: "COc1cc2cc(NC(C)=O)c(=O)oc2cc1O"
  inhibition at 10 µM (%): 5.21
